- TESTED ON: histidine-tagged human FcγRIIIa-158V (human)
- PROTOCOL DETAILS: BLI (Octet Red384); His-tagged receptor on anti-Penta-HIS biosensor; antibody 15.6-500 nM, PBS pH 7.2; global 1:1 fit
OBSERVED PROPERTY: Kd (nM)
Response body: numeric value in nM, unit text excluded.

Request: Please report the recorded Kd for antigen-binding molecule specific for HER3 comprising GASDIE Fc, human IgG1 (G1m3 allotype) (antibody) .
Response: 35

Request: And then antigen-binding molecule specific for HER3 comprising GASDALIE Fc, human IgG1 (G1m3 allotype) (antibody) , what is it?
Response: 24

Origin of the recorded values: patent US20210388083A1
